system: giant foxtail; assay: Test A pre-/postemergence greenhouse test; format: in vivo, Setaria faberi; conditions: Postemergence, 500 g ai/ha; 0 to 100 scale, 0 is no effect, 100 is complete control
assay_readout: Foxtail, Giant plant response rating
# output: bare number, no unit

Worked cases, Foxtail, Giant plant response rating given:
>>> value_observed("Cn1nc(C(F)(F)F)c(CS(=O)(=O)c2cccc[n+]2[O-])c1OC(F)F")
90
>>> value_observed("Cc1cc[n+]([O-])c(S(=O)(=O)C(Cl)c2c(C(F)(F)F)nn(CC(F)(F)F)c2Cl)c1 (stereo not shown)")
50
>>> value_observed("CC(c1c(C(F)(F)F)nn(C)c1OC(F)F)S(=O)(=O)c1cccc[n+]1[O-] (stereo not shown)")
90

Item: CC(C)c1cc[n+]([O-])c(S(=O)(=O)Cc2c(C(F)(F)F)nn(C)c2OC(F)F)c1 | Foxtail, Giant plant response rating: 90

Item: Cn1nc(C(F)(F)F)c(C[S+]([O-])c2cccc[n+]2[O-])c1OCC(F)(F)F (racemic) | Foxtail, Giant plant response rating: 90
